# testDescription: Antiproliferative activity against human Hs683 cells assessed as reduction in cell viability after 72 hrs by MTT assay
# Type: functional
# experimentalConditions: Hs 683, 72 h
propertyLabel: GI50 (µM)
# number only, unit µM dropped from output

In: Quick check: GI50 of CC1(C)CCC2=C(O1)c1ccccc1C(=O)C2=O ?
Out: 0.4

In: Proceed to N#CC1=C(N)OC2=C(C(=O)c3ccccc3C2=O)C1c1cccc(Oc2ccccc2)c1 (centres undefined)
Out: 5

In: Proceed to CC1(C)CCC2=C(O1)C(=O)c1ccccc1C2=O
Out: 9

In: Proceed to N#CC1=C(N)OC2=C(C(=O)c3ccccc3C2=O)C1c1c(Cl)cccc1Cl (centres undefined)
Out: 19.3
